- target of assay: UniProtKB P10632
- Sequence (P10632 whole entry): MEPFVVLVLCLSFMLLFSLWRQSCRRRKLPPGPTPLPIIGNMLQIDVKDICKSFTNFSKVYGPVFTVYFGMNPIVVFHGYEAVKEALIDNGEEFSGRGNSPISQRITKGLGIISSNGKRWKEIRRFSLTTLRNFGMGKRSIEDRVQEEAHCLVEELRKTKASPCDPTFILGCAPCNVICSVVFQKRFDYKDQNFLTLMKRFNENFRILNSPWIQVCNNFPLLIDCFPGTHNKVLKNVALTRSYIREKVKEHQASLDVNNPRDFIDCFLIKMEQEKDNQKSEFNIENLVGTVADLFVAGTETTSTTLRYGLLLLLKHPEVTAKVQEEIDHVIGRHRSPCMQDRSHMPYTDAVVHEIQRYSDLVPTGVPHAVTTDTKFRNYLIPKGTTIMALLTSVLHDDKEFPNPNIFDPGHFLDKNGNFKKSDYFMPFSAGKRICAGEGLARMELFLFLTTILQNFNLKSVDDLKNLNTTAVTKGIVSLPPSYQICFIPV
- run description: Time-dependent inhibition of CYP2C8 (unknown origin) at 2 ul pre-incubated for 30 mins in presence or absence of NADPH incubated for 10 mins by LC/MS analysis
reported property: IC50 (µM)
Answers are plain numbers, in µM.

For the compound "Cc1nc(N[C@H](C)c2cccc(C(F)F)c2F)c2cc3c(cc2n1)OCC[C@H]1CN(CC(F)(F)F)CCN31" , give its measured IC50 value.
39.1
